- TARGET: human FPTase (Homo sapiens, UniProt P49354+P49356)
- ASSAY PROTOCOL: In vitro inhibition of human FPTase
- EXPERIMENTAL CONTEXT: 100 nM Ras-CVIM substrate, [3H]-FPP, 30 min; read-out: IC50 against human FPTase
Where a name gives a salt, the structure may show the parent alone.
Catalogue of IC50 values
RECORDED METRIC: IC50

1. CCCCCN(Cc1cncn1Cc1ccc(C#N)cc1)C(=O)N(C)c1cccc(Cl)c1 [Example 2, hydrochloride] = < 10 µM
2. CCCCCN(Cc1cncn1Cc1ccc(C#N)cc1)C(=O)Nc1cccc(Cl)c1 [Example 1, hydrochloride] = < 10 µM
